Assay: Plasma PK of Compound A after a single 9-hour IV infusion in sleep-deprived healthy male subjects
Type: in vivo, human
Settings: male, human, plasma, iv, 112 mg, 112 mg [HD] single 9-hour IV infusion; read-out: Cmax (Mean)

>  <structure-smiles-string>
COC(=O)N1CCC[C@H](NS(C)(=O)=O)[C@@H]1CO[C@H]1CC[C@@H](c2ccccc2)CC1

>  <unit-name>
ng/mL

>  <Cmax>
268

$$$$

---

Assay: Plasma PK of Compound A after a single 9-hour IV infusion in sleep-deprived healthy male subjects
Assay type: in vivo, human
Details: male, human, plasma, iv, 44 mg, 44 mg [LD] single 9-hour IV infusion; read-out: AUC∞ (GM)

>  <structure-smiles-string>
COC(=O)N1CCC[C@H](NS(C)(=O)=O)[C@@H]1CO[C@H]1CC[C@@H](c2ccccc2)CC1

>  <AUC(0-inf) [ng·h/mL]>
955

$$$$
